B1: glmS ribozyme (parent)
chain: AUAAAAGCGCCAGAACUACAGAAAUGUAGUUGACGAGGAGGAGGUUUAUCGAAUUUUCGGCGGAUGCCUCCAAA

Variants of: B1
protocol-notes: self-cleavage kobs at 10000 uM GlcN6P; higher = faster cleavage; RNA array
cond: with glucosamine-6-phosphate
Variants at the floor of the assay were thinned out.
Rule: self-cleavage kobs at 10000 uM GlcN6P under 0.0004 s⁻¹ gives not satisfied, otherwise satisfied.

mutation: A48G C50G C61G
cat: not satisfied
--
mutation: G40U C70U
cat: satisfied
--
mutation: C10A G29C A42G U55C U56C C70U
cat: not satisfied
--
mutation: A14C G37C
cat: not satisfied
--
mutation: G29A U57A
cat: not satisfied
--
mutation: C8A A14U A39C
cat: not satisfied
--
mutation: A42G U46C
cat: satisfied
--
mutation: U45C U54G U56A
cat: satisfied
--
mutation: G7A U56C
cat: not satisfied
--
mutation: G38A C58G
cat: not satisfied
--
mutation: C16A G29U U45G
cat: satisfied
--
mutation: G7A A64G
cat: not satisfied
--
mutation: G59C U65A
cat: not satisfied
--
mutation: U47G G66U
cat: not satisfied
--
mutation: A14C U45G
cat: satisfied
--
mutation: A33U C67A
cat: not satisfied
--
mutation: A42U G66A
cat: not satisfied
--
mutation: G38U C61A C67U
cat: not satisfied
--
mutation: U54G U65G C67G
cat: satisfied
--
mutation: A42C G44U
cat: not satisfied
--
mutation: A33U U47A
cat: not satisfied
--
mutation: C10A A12G G35C U56A U69A
cat: not satisfied
--
mutation: G29A A39C
cat: satisfied
--
mutation: C11U C34G G51A A52U C68G
cat: satisfied
--
mutation: C50A C61G C68G
cat: not satisfied
--
mutation: G21U A52G
cat: satisfied
--
mutation: C8G A64G
cat: not satisfied
--
mutation: A6C A39G G41A U46A A64G
cat: not satisfied
--
mutation: A39U C58G
cat: not satisfied
--
mutation: G32C U47A
cat: not satisfied
--
mutation: G13U G35U
cat: not satisfied
--
mutation: C10U U55C G62U
cat: not satisfied
--
mutation: A39U U47A
cat: satisfied
--
mutation: A52C G59U
cat: not satisfied
--
mutation: G66C C71G
cat: not satisfied
--
mutation: A14U G35U G44C
cat: not satisfied
--
mutation: G7A A52G
cat: not satisfied
--
mutation: A15C G32U G60U
cat: not satisfied
--
mutation: A12G G29A U46C
cat: not satisfied
--
mutation: G38U C50G C67A C71G
cat: not satisfied
--
mutation: U46A G66U
cat: satisfied
--
mutation: A52G C58A
cat: not satisfied
--
mutation: U31A A64U
cat: not satisfied
--
mutation: A39C C68U
cat: satisfied
--
mutation: A6G U45A G60C
cat: not satisfied
--
mutation: U46A C70A
cat: not satisfied
--
mutation: A15C A36G
cat: not satisfied
--
mutation: G7U A14U G38C U57C G60U C67U
cat: not satisfied
--
mutation: C16G U46A
cat: not satisfied
--
mutation: C10U A42C G43U C67A
cat: not satisfied
--
mutation: A64G G66A
cat: satisfied
--
mutation: G13A G37U A39G G41C A42C G43A
cat: not satisfied
--
mutation: C8G C58U
cat: not satisfied
--
mutation: A12C G40U
cat: satisfied
--
mutation: U30A G37A
cat: not satisfied
--
mutation: A36C G43U
cat: not satisfied
--
mutation: A6G C67U
cat: not satisfied
--
mutation: G32U G40U
cat: not satisfied
--
mutation: G13U C50G
cat: not satisfied
--
mutation: C11U G60A C68G
cat: not satisfied
--
mutation: U49G G66A
cat: not satisfied
--
mutation: A14U U45G G62C
cat: not satisfied
--
mutation: A53C C71U
cat: satisfied
--
mutation: G7U U49A
cat: not satisfied
--
mutation: G9U G41A
cat: not satisfied
--
mutation: C34U A39G
cat: not satisfied
--
mutation: G9U U31C
cat: not satisfied
--
mutation: G29C U47G
cat: not satisfied
--
mutation: U57A A64G
cat: not satisfied
--
mutation: G41C G43C
cat: not satisfied
--
mutation: A12U A36G A52U C71G
cat: not satisfied
--
mutation: G43U U69G
cat: not satisfied
--
mutation: G9U U49G
cat: not satisfied
--
mutation: U30A G41A
cat: not satisfied
--
mutation: G32A G40A C68G
cat: not satisfied
--
mutation: A12G C34A U45A
cat: not satisfied
--
mutation: G13U U57C
cat: not satisfied
--
mutation: U30A C71G
cat: not satisfied
--
mutation: A53C U54A
cat: satisfied
--
mutation: A15U C34G
cat: not satisfied
--
mutation: C11U U31C A42G A53U
cat: not satisfied
--
mutation: C11A A14U A36U U46A
cat: not satisfied
--
mutation: U46C C67G
cat: satisfied
--
mutation: C10U G37C A42C
cat: not satisfied
--
mutation: A39U U65C C67G
cat: not satisfied
--
mutation: C34A G38A
cat: not satisfied
--
mutation: A12G G63C C70U
cat: not satisfied
--
mutation: C61A G62U
cat: not satisfied
--
mutation: G41A G66C
cat: not satisfied
--
mutation: A6C C50G C70U
cat: not satisfied
